# System: OVCAR-5
# MEASUREMENT DESCRIPTION: NCI tumour cell line growth inhibition, 48 h
Activity calls are given as the source filed them. Rule as the data show it: active = GI50 up to about 1.1 µM and inactive = higher.
OUTCOME MEASURE: GI50

>  <MOLECULE>
CCOC(=O)c1[nH]c2nc(SC)nc(Nc3ccccc3Cl)c2c1N

>  <GI50>
19.6 µM (inactive)

$$$$
>  <MOLECULE>
CC1(C)CCC2(C(=O)O)C(O)CC3(C)C(=CCC4C5(C)CCC(OC6OCC(O)C(O)C6OC6OCC(O)C(O)C6OC6OCC(O)C(OC7OC(CO)C(O)C(O)C7O)C6O)C(C)(C)C5CCC43C)C2C1 (stereo not given)

>  <GI50>
33.8 µM (inactive)

$$$$
>  <MOLECULE>
CC1=C(C(=O)Nc2ccccc2)C(c2ccc(Cl)c(Cl)c2)C(C(=O)Nc2ccccc2)=C(C)N1

>  <GI50>
18.3 µM (inactive)

$$$$
>  <MOLECULE>
Cc1ccc(-c2n[nH]c(=O)n2/N=C\c2ccccc2O)cc1

>  <GI50>
> 100 µM (inactive)

$$$$
>  <MOLECULE>
CCOC(=O)/C([O-])=C(\C(=O)OCC)[n+]1c(C)n(C)c2ccccc21

>  <GI50>
> 100 µM (inactive)

$$$$
>  <MOLECULE>
COC1=CC(=O)c2c(O)c3c(c(O)c2C1=O)OC1(Oc2c(cc4cc(C)oc(=O)c4c2O)CC1O)C3O (stereo not given)

>  <GI50>
32.7 µM (inactive)

$$$$
>  <MOLECULE>
NNC(=S)N/N=C(/C(=O)Nc1ccc([N+](=O)[O-])cc1)c1nc2ccc([N+](=O)[O-])cc2nc1O

>  <GI50>
> 100 µM (inactive)

$$$$
>  <MOLECULE>
C=C=C(CC1CCCCC1=O)S(=O)(=O)c1ccccc1 (stereo not given)

>  <GI50>
> 10 µM (inactive)

$$$$
>  <MOLECULE>
CC1OC(CC(=O)O)CC2=C1C(=O)c1c(O)cccc1C2=O (stereo not given)

>  <GI50>
1.39 µM (inactive)

$$$$
>  <MOLECULE>
Nc1ncnc2c1ncn2[C@@H]1O[C@H](COP(=O)(O)O)[C@@H](O)[C@@H]1O

>  <GI50>
> 40.7 µM (inactive)

$$$$

I'm hoping you can list GI50 for every molecule here, please.
1. CCC(C(=O)c1ccccc1)C(CCCC(=O)Nc1c(C)cccc1C)N=O (stereo not given)
2. CCOC(=O)/C(=N/Nc1ccc(Cl)cc1)N1C(=S)N(C)N=C(C)C=C1S
3. CCOC(=O)CCCO

["> 100 µM (inactive)", "> 100 µM (inactive)", "> 100 µM (inactive)"]

I'm hoping you can list GI50 for every molecule here, please.
1. CC(C)(C)c1ccc(O)c(C(O)c2cccnc2)c1 (stereo not given)
2. CCOC(=O)/C(=C/c1cccc(Cl)c1)N(CC)CC
3. O=C(Nc1ccc2ccccc2c1)c1cc2cc(CCl)ccc2oc1=O
4. CCOC(=O)/C(=C/c1ccc(C#N)cc1)N(CC)CC
5. c1ccc2c(c1)cc1n2CC2CN=NC12 (stereo not given)
6. [N-]=[N+]=CC(=O)OCC(N)C(=O)O (stereo not given)

> 100 µM (inactive)
> 100 µM (inactive)
> 100 µM (inactive)
> 100 µM (inactive)
> 100 µM (inactive)
14.6 µM (inactive)

I'm hoping you can list GI50 for every molecule here, please.
1. Cc1cc(C)n(C2=NS(=O)(=O)c3ccccc3N2C)n1
2. O=[N+]([O-])c1ccc(N2N=C(c3c(O)ccc4ccccc34)CC2c2ccc(Cl)cc2)c([N+](=O)[O-])c1 (stereo not given)

["> 100 µM (inactive)", "17.1 µM (inactive)"]

I'm hoping you can list GI50 for every molecule here, please.
1. CC(=O)C1C(=O)C(=O)N(c2ccccc2C(C)C)C1=O (stereo not given)
2. CCCOc1cc2c(cc1O)CC[C@@H]1[C@@H]2CC[C@]2(C)[C@@H](O)CC[C@@H]12
3. COc1cc2ccnc(-c3n[nH]c4cc(OC)c(OC)cc34)c2cc1OC
4. N#C/C(=C\c1ccc(O)cc1O)C(N)=O
5. CCOC(=O)C(=CNc1ccc(S(N)(=O)=O)cc1)C(=O)OCC
6. CC(C)c1cc(C(F)(F)F)nc(NNc2nc(C(C)C)cc(C(F)(F)F)n2)n1
7. CSCSSC

> 100 µM (inactive)
27.4 µM (inactive)
> 100 µM (inactive)
> 100 µM (inactive)
> 100 µM (inactive)
> 100 µM (inactive)
> 100 µM (inactive)
